# Tested on: HBV
# method notes: De novo infection models (HepG2-NTCP and PHH), summary
# Type: cell-based, Hepatitis B virus
# condition details: Hepatitis B virus; range over two de novo infection models; read-out: EC50, suppression of cccDNA formation
pEC50: −log10 of the molar value.

{"columns": ["input smiles", "pEC50"],
 "data": [
  ["O=C(NCc1cnc(C(F)(F)F)s1)c1ccc2c(c1)NC(=O)c1ccccc1S2(=O)=O", "5.14 to 5.74"]
]}

====

# method notes: in vitro
# condition details: human, microsomes
property name: half-life at 0.5 μM (h)

{"columns": ["input smiles", "reported"],
 "data": [
  ["O=C(NCc1cnc(C(F)(F)F)s1)c1ccc2c(c1)NC(=O)c1ccccc1S2(=O)=O", 6.27]
]}

====

# method notes: in vitro
# condition details: mouse, microsomes
property name: half-life at 0.5 μM (h)

{"columns": ["compound", "readout unit", "reported"],
 "data": [
  ["O=C(NCc1cnc(C(F)(F)F)s1)c1ccc2c(c1)NC(=O)c1ccccc1S2(=O)=O [ABI-H0731]", "h", 2.33]
]}

====

# System: HBV Cp Y38F
# method notes: microbe, parasite or virus in culture
# Format: cell-based, Hepatitis B virus
# condition details: Hepatitis B virus, Huh-7, read-out: Mean EC50
pEC50: −log10 of the molar value.

{"columns": ["compound", "tested on", "pEC50"],
 "data": [
  ["O=C(NCc1cnc(C(F)(F)F)s1)c1ccc2c(c1)NC(=O)c1ccccc1S2(=O)=O", "HBV Cp Y38F", 6.32],
  ["CCOC(=O)C1=C(CN2CCOCC2)NC(c2nccs2)=NC1c1ccc(F)cc1Br (centres unmarked)", "HBV Cp Y38F", 7.19],
  ["C=C1[C@H](CO)[C@@H](O)C[C@@H]1n1cnc2c(=O)[nH]c(N)nc21", "HBV Cp Y38F", 8.34],
  ["O=C(Nc1cc(F)c(F)c(F)c1)c1ccc(F)c(S(=O)(=O)N2CCC(O)CC2)c1", "HBV Cp Y38F", 6.68],
  ["O=C1CO[C@H](c2cn(-c3ccc(F)cc3)nc2-c2ccc(F)cc2)N1CCc1ccc(O)cc1", "HBV Cp Y38F", 7.70]
]}

====

# method notes: in vivo
# condition details: male, CD-1 (mouse), Sprague-Dawley (rat), beagle (dog), cynomolgus monkey, po

{"columns": ["molecule", "Tmax"],
 "data": [
  ["O=C(NCc1cnc(C(F)(F)F)s1)c1ccc2c(c1)NC(=O)c1ccccc1S2(=O)=O [ABI-H0731]", "0.7 to 3.3 h"]
]}

====

# method notes: in vivo
# condition details: male, CD-1, mouse, iv, 1 mg/kg
property name: Vd (L/kg)

{"columns": ["compound", "property name", "readout unit", "reported"],
 "data": [
  ["O=C(NCc1cnc(C(F)(F)F)s1)c1ccc2c(c1)NC(=O)c1ccccc1S2(=O)=O [ABI-H0731]", "Vd", "L/kg", 2.16]
]}

====

# method notes: in vitro
# condition details: dog, hepatocytes

{"columns": ["compound", "half-life at 1 μM"],
 "data": [
  ["O=C(NCc1cnc(C(F)(F)F)s1)c1ccc2c(c1)NC(=O)c1ccccc1S2(=O)=O [ABI-H0731]", "40 min"]
]}
